Would you mind telling me the reported inhibition at 0.5 µM of each entry?
Target: CDK-9/Cyclin T1 (Homo sapiens, UniProt P50750)
Sequence (P50750 whole entry): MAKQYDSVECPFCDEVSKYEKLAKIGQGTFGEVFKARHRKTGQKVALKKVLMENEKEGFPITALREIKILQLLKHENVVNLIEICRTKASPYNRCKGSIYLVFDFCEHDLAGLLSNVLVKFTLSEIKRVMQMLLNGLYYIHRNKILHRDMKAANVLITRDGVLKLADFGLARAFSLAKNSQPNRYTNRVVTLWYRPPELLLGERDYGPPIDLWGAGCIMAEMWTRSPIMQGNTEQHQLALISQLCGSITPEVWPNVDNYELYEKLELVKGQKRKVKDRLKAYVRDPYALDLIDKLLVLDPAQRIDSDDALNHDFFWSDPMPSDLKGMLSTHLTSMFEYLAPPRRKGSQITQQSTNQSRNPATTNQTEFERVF
Sequence (O60563 whole entry partner): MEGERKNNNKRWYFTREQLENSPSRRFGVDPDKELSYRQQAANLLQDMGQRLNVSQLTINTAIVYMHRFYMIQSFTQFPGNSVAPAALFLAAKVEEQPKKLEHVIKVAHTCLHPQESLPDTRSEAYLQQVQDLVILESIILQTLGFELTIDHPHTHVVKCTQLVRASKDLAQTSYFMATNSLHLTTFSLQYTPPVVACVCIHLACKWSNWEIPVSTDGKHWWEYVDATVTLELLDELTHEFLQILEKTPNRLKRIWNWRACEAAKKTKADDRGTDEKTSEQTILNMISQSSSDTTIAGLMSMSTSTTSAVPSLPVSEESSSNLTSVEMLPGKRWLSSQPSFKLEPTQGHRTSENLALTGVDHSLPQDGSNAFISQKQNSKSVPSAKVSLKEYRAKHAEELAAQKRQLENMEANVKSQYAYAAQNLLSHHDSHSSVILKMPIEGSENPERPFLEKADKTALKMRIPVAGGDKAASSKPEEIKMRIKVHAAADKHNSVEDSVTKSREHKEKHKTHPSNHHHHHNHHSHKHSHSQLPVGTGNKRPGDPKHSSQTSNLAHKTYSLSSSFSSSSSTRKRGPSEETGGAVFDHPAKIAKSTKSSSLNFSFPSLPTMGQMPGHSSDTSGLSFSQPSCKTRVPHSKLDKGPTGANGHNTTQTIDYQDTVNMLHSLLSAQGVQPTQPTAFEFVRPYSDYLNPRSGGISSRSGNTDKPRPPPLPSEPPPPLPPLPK
Test: CDK inhibition assay, CDK-9/Cyclin T1 against substrate peptide, 33P-ATP
Type: biochemical
Conditions: at 500 nM; Table-7; read-out: In vitro CDK9 % of inhibition
Procedure: (50-1000 cpm/pmole) and incubated for 30 min at room temperature. Assays were stopped by addition of 5 µl of 0.5 M (3%) orthophosphoric acid and then harvested onto P81 Unifilter plates with a wash buffer of 50 mM orthophosphoric acid.

{"columns": ["COMPOUND", "inhibition at 0.5 µM"],
 "data": [
  ["c1ccc2sc(-c3cnc4[nH]cc(-c5ccnc(NC6CCCCCC6)n5)c4c3)cc2c1 [1A58]", "> 70%"],
  ["c1cncc(-c2cnc3[nH]cc(-c4ccnc(NC5CCCCCC5)n4)c3c2)c1 [1A55]", "> 70%"],
  ["c1ccc2[nH]c(-c3cnc4[nH]cc(-c5ccnc(NC6CCCCCC6)n5)c4c3)cc2c1 [1A59]", "> 70%"],
  ["COc1ccc(-c2cnc3[nH]cc(-c4ccnc(NCCc5ccccc5)n4)c3c2)cc1 [1B11]", "> 50%"]
]}

Below: the item to evaluate.
Suppose we examine the compound c1ccc(CCNc2nccc(-c3c[nH]c4ncc(-c5cc6ccccc6[nH]5)cc34)n2)cc1 [1B19] ; what inhibition at 0.5 µM value has been reported?
> 50%

###

biological target: CDK-2/cyclin A (Homo sapiens, UniProt P24941); assay: CDK inhibition assay, CDK-2/cyclin A against Histone HI, 33P-ATP; assay type: biochemical; conditions: at 500 nM; Table-6; read-out: In vitro CDK2 % of inhibition
MEASUREMENT TYPE: inhibition at 0.5 µM

As a guide, the following entries are already answered.
{"columns": ["COMPOUND", "MEASURED TARGET", "MEASUREMENT TYPE", "OBSERVED RESULT"],
 "data": [
  ["Cc1cccc(-c2cnc3[nH]cc(-c4ccnc(NC5CCCC5)n4)c3c2)c1", "CDK-2/cyclin A (Homo sapiens, UniProt P24941)", "inhibition at 0.5 µM", "> 50%"],
  ["CN1CC[C@H](c2c(O)cc(O)c3c(=O)cc(-c4ccccc4Cl)oc23)[C@H](O)C1 [Flavopyr idol, flavopiridol, reference compound]", "CDK-2/cyclin A (Homo sapiens, UniProt P24941)", "inhibition at 0.5 µM", "> 70%"],
  ["CCc1ccccc1-c1cnc2[nH]cc(-c3ccnc(NC4CC4)n3)c2c1", "CDK-2/cyclin A (Homo sapiens, UniProt P24941)", "inhibition at 0.5 µM", "> 70%"]
]}

Suppose we examine the compound c1ccc2[nH]c(-c3cnc4[nH]cc(-c5ccnc(NC6CC6)n5)c4c3)cc2c1 ; what inhibition at 0.5 µM value has been reported?
> 70%

###

target: CDK-9/Cyclin T1 (Homo sapiens); test: CDK inhibition assay, CDK-9/Cyclin T1 against substrate peptide, 33P-ATP; type: biochemical; details: at 500 nM; Table-7; read-out: In vitro CDK9 % of inhibition
MEASUREMENT TYPE: inhibition at 0.5 µM

As a guide, the following entries are already answered.
{"columns": ["SMILES", "OBSERVED RESULT"],
 "data": [
  ["FC(F)(F)Oc1ccc(-c2cnc3[nH]cc(-c4ccnc(NCCc5ccccc5)n4)c3c2)cc1", "> 50%"],
  ["Clc1ccc(-c2cnc3[nH]cc(-c4ccnc(NCCc5ccccc5)n4)c3c2)cc1", "> 70%"],
  ["CC(=O)c1ccc(-c2cnc3[nH]cc(-c4ccnc(NCCc5ccccc5)n4)c3c2)cc1", "> 50%"]
]}

Below: the item to evaluate.
# get_value(readout= inhibition at 0.5 µM, system= CDK-9/Cyclin T1 (Homo sapiens)) for c1ccc(CCNc2nccc(-c3c[nH]c4ncc(-c5cccc6ccccc56)cc34)n2)cc1
> 50%

###

biological target: CDK-2/cyclin A (Homo sapiens, UniProt P24941); assay: CDK inhibition assay, CDK-2/cyclin A against Histone HI, 33P-ATP; format: biochemical; settings: at 500 nM; Table-6; read-out: In vitro CDK2 % of inhibition
MEASUREMENT TYPE: inhibition at 0.5 µM

{"columns": ["SMILES", "OBSERVED RESULT"],
 "data": [
  ["CCc1ccccc1-c1cnc2[nH]cc(-c3ccnc(NC4CCCC4)n3)c2c1", "> 50%"]
]}

Please report inhibition at 0.5 µM for every entry that follows.
1. Cc1cccc(-c2cnc3[nH]cc(-c4ccnc(NC5CC5)n4)c3c2)c1
2. FC(F)(F)c1cccc(-c2cnc3[nH]cc(-c4ccnc(NC5CC5)n4)c3c2)c1
3. Fc1ccc(-c2cnc3[nH]cc(-c4ccnc(NC5CCCC5)n4)c3c2)cc1
4. FC(F)(F)c1cccc(-c2cnc3[nH]cc(-c4ccnc(NC5CCCC5)n4)c3c2)c1
5. CSc1ccc(-c2cnc3[nH]cc(-c4ccnc(NC5CC5)n4)c3c2)cc1
6. CSc1ccc(-c2cnc3[nH]cc(-c4ccnc(NC5CCCC5)n4)c3c2)cc1

1: > 70%; 2: > 70%; 3: > 50%; 4: > 50%; 5: > 70%; 6: > 50%

Please report inhibition at 0.5 µM for every entry that follows.
1. O=Cc1ccc(-c2cnc3[nH]cc(-c4ccnc(NC5CCCC5)n4)c3c2)cc1
2. O=Cc1ccc(-c2cnc3[nH]cc(-c4ccnc(NC5CC5)n4)c3c2)cc1

1. > 70%
2. > 70%

###

target: CDK-9/Cyclin T1 (Homo sapiens, UniProt P50750); experiment: CDK inhibition assay, CDK-9/Cyclin T1 against substrate peptide, 33P-ATP; format: biochemical; conditions: at 500 nM; read-out: inhibition against CDK9
Would you mind telling me the reported inhibition at 0.5 µM of each entry?

{"columns": ["COMPOUND", "inhibition at 0.5 µM"],
 "data": [
  ["CCc1ccccc1-c1cnc2[nH]cc(-c3ccnc(N)n3)c2c1 [1C10]", "> 70%"],
  ["COc1ccc2[nH]c(-c3cnc4[nH]cc(-c5ccnc(NC6CCCCCC6)n5)c4c3)cc2c1 [1A57]", "> 70%"],
  ["COc1ccc(-c2cnc3[nH]cc(-c4ccnc(NC5CCCCCC5)n4)c3c2)cc1 [1A51]", "> 70%"],
  ["Fc1ccc(-c2cnc3[nH]cc(-c4ccnc(NC5CCCCCC5)n4)c3c2)cc1 [1A42]", "> 50%"],
  ["Nc1nccc(-c2c[nH]c3ncc(-c4cccc5ccccc45)cc23)n1 [1C14]", "> 70%"],
  ["c1ccc(CCNc2nccc(-c3c[nH]c4ncc(-c5cc6ccccc6s5)cc34)n2)cc1 [1B18]", "> 50%"],
  ["c1ccc2[nH]c(-c3cnc4[nH]cc(-c5ccnc(NC6CC6)n5)c4c3)cc2c1 [1A19]", "> 70%"],
  ["Fc1cccc(-c2cnc3[nH]cc(-c4ccnc(NC5CC5)n4)c3c2)c1 [1A5]", "> 70%"]
]}

Below: the item to evaluate.
Suppose we examine the compound CSc1ccccc1-c1cnc2[nH]cc(-c3ccnc(NCCc4ccccc4)n3)c2c1 [1B9] ; what inhibition at 0.5 µM value has been reported?
> 50%

###

Would you mind telling me the reported inhibition at 0.5 µM of each entry?
molecular target: CDK-2/cyclin A (Homo sapiens, UniProt P24941); experiment: CDK inhibition assay, CDK-2/cyclin A against Histone HI, 33P-ATP; format: biochemical; settings: at 500 nM; Table-7; read-out: In vitro CDK2 % of inhibition

As a guide, the following entries are already answered.
{"columns": ["COMPOUND", "inhibition at 0.5 µM"],
 "data": [
  ["Cc1ccc(-c2cnc3[nH]cc(-c4ccnc(NCCc5ccccc5)n4)c3c2)cc1 [1B6]", "> 70%"],
  ["Cc1cccc(-c2cnc3[nH]cc(-c4ccnc(NCCc5ccccc5)n4)c3c2)c1 [1B7]", "> 70%"],
  ["c1ccc2sc(-c3cnc4[nH]cc(-c5ccnc(NC6CCCCCC6)n5)c4c3)cc2c1 [1A58]", "> 70%"]
]}

Please report inhibition at 0.5 µM for every entry that follows.
1. COc1ccc2[nH]c(-c3cnc4[nH]cc(-c5ccnc(NCCc6ccccc6)n5)c4c3)cc2c1 [1B17]
2. CCc1ccccc1-c1cnc2[nH]cc(-c3ccnc(N)n3)c2c1 [1C10]

> 50%
> 70%

###

target: CDK-2/cyclin A (Homo sapiens, UniProt P24941); assay: CDK inhibition assay, CDK-2/cyclin A against Histone HI, 33P-ATP; type: biochemical; details: at 500 nM; read-out: inhibition against CDK2
MEASUREMENT TYPE: inhibition at 0.5 µM

As a guide, the following entries are already answered.
{"columns": ["SMILES", "OBSERVED RESULT"],
 "data": [
  ["Cc1ccc(-c2cnc3[nH]cc(-c4ccnc(NC5CC5)n4)c3c2)cc1", "> 70%"],
  ["Clc1ccc(-c2cnc3[nH]cc(-c4ccnc(NC5CCCC5)n4)c3c2)cc1", "> 50%"],
  ["Cc1ccc(-c2cnc3[nH]cc(-c4ccnc(NCCc5ccccc5)n4)c3c2)cc1", "> 70%"]
]}

Please report inhibition at 0.5 µM for every entry that follows.
1. CSc1ccccc1-c1cnc2[nH]cc(-c3ccnc(NC4CCCC4)n3)c2c1
2. COc1ccc(-c2cnc3[nH]cc(-c4ccnc(NC5CCCCCC5)n4)c3c2)cc1
3. c1cncc(-c2cnc3[nH]cc(-c4ccnc(NC5CCCC5)n4)c3c2)c1
4. Cc1cccc(-c2cnc3[nH]cc(-c4ccnc(NC5CCCC5)n4)c3c2)c1
5. CCc1ccccc1-c1cnc2[nH]cc(-c3ccnc(NCCc4ccccc4)n3)c2c1

1: > 70%; 2: > 70%; 3: > 50%; 4: > 50%; 5: > 50%
